Ref: ChEMBL document CHEMBL5252662

tested on: Mus musculus; experiment: Induction of food uptake in CD-1 mouse model at 10 mg/kg, ip measured after 1 hr; assay type: functional, organism-based
Activity calls are given as the source filed them. The rule behind the calls is not given here.
Outcome codes: yes (1) for active, no (0) for inactive

* COC(=O)[C@@H](NC(=O)c1cc(-n2cccc2)n(-c2ccc(Cl)cc2)n1)C(C)(C)C | no (0)
* COC(=O)[C@@H](NC(=O)c1cc(-n2cccc2)n(-c2ccc(Cl)cc2)n1)C(C)C | no (0)
* Cc1c(C(=O)N[C@H](C(N)=O)C(C)(C)C)nn(-c2ccc(Cl)c(Cl)c2)c1-n1cccc1Cl | no (0)
* COC(=O)[C@@H](NC(=O)c1cc(-n2cccc2)n(-c2ccccc2)n1)C(C)(C)C | yes (1)
* Cc1c(C(=O)N[C@H](C(N)=O)C(C)(C)C)nn(-c2ccccc2)c1-n1cccc1 | no (0)
* Cc1c(C(=O)N[C@H](C(N)=O)C(C)(C)C)nn(-c2ccc(Cl)cc2)c1-n1cccc1 | no (0)
* COC(=O)[C@@H](NC(=O)c1nn(-c2ccc(Cl)cc2Cl)c(-n2cccc2Cl)c1C)C(C)C | yes (1)
* COC(=O)[C@@H](NC(=O)c1nn(-c2ccc(Cl)cc2)c(-n2cccc2)c1C)C(C)(C)C | no (0)
* CNC(=O)[C@@H](NC(=O)c1nn(-c2ccc(Cl)cc2)c(-n2cccc2)c1C)C(C)(C)C | yes (1)
